Documented normalized growth across a set of molecules
Experiment: chemical genetic growth profiling, strain panel (AID 1159580);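 further: tested at 20 µM; growth read once vehicle control cultures reached saturation at 30 °C; 1 = growth at the plate median or of vehicle wells; lower values mean less growth of the strain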
Details: S. cerevisiae deletion strains, growth OD, locus YLR371W, strain rom2, hits give low values
The campaign covered roughly 5,500 compounds. About 2,000 (36%) were called active. About 18% were inconclusive and are not listed. The list shows a part of the results.

MOLECULE: CN(C)N=Nc1nc[nH]c1C(N)=O
normalized growth: 1
//
MOLECULE: CC(=O)O[C@H]1CC[C@]2(C)C3C(=O)[C@@H](OC(C)=O)[C@@]4(C)C(C[C@@H]5O[C@]6(CCC(C)CO6)[C@@H](C)[C@@H]54)C3CC[C@H]2C1 (stereo partly specified)
normalized growth: 0.99
//
MOLECULE: CC1CCC2(OC1)OC1CC3C4CCC5C[C@@H](O)CCC5(C)C4=CCC3(C)C1[C@@H]2C (stereo partly specified)
normalized growth: 0.978
//
MOLECULE: CC(CN(C)C)CN1c2ccccc2Sc2ccccc21 (stereo unspecified)
normalized growth: 0.994
//
MOLECULE: CNCCCN1c2ccccc2CCc2ccccc21
normalized growth: 0.988
//
MOLECULE: CC(CN(C)C)CN1c2ccccc2CCc2ccccc21 (stereo unspecified)
normalized growth: 1.01
//
MOLECULE: CCCCCC1C(=O)CCC1CC(=O)OC (stereo unspecified)
normalized growth: 0.958
//
MOLECULE: CCN(CC)C(C)CN1c2ccccc2Sc2ccccc21 (stereo unspecified)
normalized growth: 0.955
//
MOLECULE: CC(=O)O[C@H]1CC[C@]2(C)C3=CC(=O)[C@@]4(C)C(C[C@@H]5OC6(OCC(C)CC6Br)[C@@H](C)[C@@H]54)C3CC[C@H]2C1 (stereo partly specified)
normalized growth: 0.99
//
MOLECULE: CCOC(=O)[C@H](CCc1ccccc1)N[C@@H](C)C(=O)N1Cc2ccccc2C[C@H]1C(=O)O
normalized growth: 1.01
//
MOLECULE: CCCCCC1C(=O)CCC1CC(=O)O (stereo unspecified)
normalized growth: 0.987

###

Experiment: chemical genetic growth profiling, strain panel (AID 1159580);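 further: tested at 20 µM; growth read once vehicle control cultures reached saturation at 30 °C; 1 = growth at the plate median or of vehicle wells; lower values mean less growth of the strain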
Settings: S. cerevisiae deletion strains, growth OD, locus YHR079C, strain IRE1 (second series), hits give low values
In all, about 5,500 compounds went through this assay and about 2,000 (36%) were called active. Inconclusive results (about 18%) are left out. The list shows a part of the results.
Could you mark each record MET if its normalized growth falls strictly under 1, and NOT MET if it equals or exceeds it?

COMPOUND: CN1CC(CNC(=O)OCc2ccccc2)CC2c3cccc4c3c(cn4C)CC21 (stereo not drawn)
GROUP: MET
//
COMPOUND: CCCCC[C@H](CC(=O)NO)C(=O)N[C@H](C(=O)N1CCC[C@H]1CO)C(C)C
GROUP: NOT MET

###

Experiment: chemical genetic growth profiling, strain panel (AID 1159580);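 further: tested at 20 µM; growth read once vehicle control cultures reached saturation at 30 °C; 1 = growth at the plate median or of vehicle wells; lower values mean less growth of the strain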
Settings: S. cerevisiae deletion strains, growth OD, locus YNL233W, strain BNI4, hits give low values
Out of some 5,500 compounds screened, about 2,000 (36%) were called active. Another 18% or so got no clear call; they are omitted. The list shows a part of the results.

MOLECULE: O=C(O)Cc1cc(I)c(Oc2cc(I)c(O)c(I)c2)c(I)c1
normalized growth: 0.968
--
MOLECULE: CC(CCC(=O)O)[C@H]1CCC2C3CC[C@@H]4CCCC[C@]4(C)C3CC[C@@]21C (stereo not given in full)
normalized growth: 1.01
--
MOLECULE: N[C@H](Cc1cc(I)c(Oc2ccc(O)c(I)c2)c(I)c1)C(=O)O
normalized growth: 0.961
--
MOLECULE: O=c1cc(-c2ccccc2)oc2c(O)c(O)ccc12
normalized growth: 0.922
--
MOLECULE: CCCCC[C@H](CC(=O)NO)C(=O)N[C@H](C(=O)N1CCC[C@H]1CO)C(C)C
normalized growth: 1.03
--
MOLECULE: COc1cc([C@H]2Oc3cc([C@H]4Oc5cc(O)cc(O)c5C(=O)[C@@H]4O)ccc3O[C@@H]2CO)ccc1O
normalized growth: 0.997
--
MOLECULE: CC12CC3CC(C)(C1)CC(N)(C3)C2
normalized growth: 1.01
--
MOLECULE: CO[C@]12C[C@@H](COC(=O)c3cncc(Br)c3)CN(C)[C@@H]1Cc1cn(C)c3cccc2c13
normalized growth: 0.997
--
MOLECULE: O=c1cc(-c2cc(O)c(O)c(O)c2)oc2cc(O)cc(O)c12
normalized growth: 1.01
--
MOLECULE: N[C@@H](Cc1cc(I)c(Oc2cc(I)c(O)c(I)c2)c(I)c1)C(=O)O
normalized growth: 1.03

Measured values drawn from PubChem BioAssay AID1159580 for this set.
